Provenance of the data: ChEMBL document CHEMBL1961873

Hi there, I'd appreciate the recorded inhibition for every entry that follows.
biological target: Serine/threonine-protein kinase DCLK2 (Homo sapiens); conditions: at 1 µM;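 further: each value is a mean percent inhibition of DCLK2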

The examples below pair each entry with its known result.
# chemical-structure, inhibition
measured = [
    ("NS(=O)(=O)c1ccc(N/N=C2\\C(=O)Nc3ccc(C(=O)NCCCn4ccnc4)cc32)cc1", "2.86%"),
    ("CN(C)CCOc1ccc(-c2cc(-c3ccc4c(c3)CCC4=NO)c(-c3ccncc3)o2)cc1", "-1.37%"),
    ("CCc1nccc2c1nc(-c1nonc1N)n2CC", "4.54%"),
    ("O=C(Nc1n[nH]c2cc(-c3ccccc3)ccc12)C1CC1", "1.05%"),
    ("Cc1ccc(C(=O)NC2CCC2)cc1-c1ccc(C(=O)NCC2CC2)cc1", "4.16%"),
]

We next turn to a different compound, shown below.
Q: Could you share which inhibition value was measured for NC(=O)c1ccc(Oc2nccc(-c3c(-c4ccc(F)cc4)ncn3C3CCNCC3)n2)cc1 ?
A: 1.94%

---

target: cAMP-dependent protein kinase catalytic subunit PRKX (Homo sapiens); conditions: at 0.1 µM;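 further: values are mean percent inhibition of PRKX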
Hi there, I'd appreciate the recorded inhibition for every entry that follows.
Give bare numbers, in %.

The examples below pair each entry with its known result.
# chemical-structure, inhibition, %
rows = [
    ("COc1cc2ncn(-c3cc(OCc4cccs4)c(C(N)=O)s3)c2cc1OC", 3.18),
    ("Fc1ccc(-c2ncn(C3CCNCC3)c2-c2ccnc(Oc3ccc(Oc4ccccc4)cc3)n2)cc1", 2.43),
    ("Cc1nnc(-c2ccc(C)c(-c3ccc(C(=O)NCc4ccc(Cl)cc4)cc3)c2)o1", 2.66),
    ("Fc1ccc(-c2ncn(C3CCNCC3)c2-c2ccnc(Oc3ccc(F)c(F)c3)n2)cc1", 1.98),
    ("COc1cc(N2CCN(C(C)C)CC2)ccc1Nc1nc(Nc2ccc(F)cc2C(=O)NC[C@@H](O)CO)c2cc[nH]c2n1", 2.99),
]

Here are 7 compounds. What values of inhibition were reported for them?
1. NS(=O)(=O)c1ccc(N/N=C2\C(=O)Nc3ccc(-c4cnco4)cc32)cc1
2. C#Cc1cccc(Nc2ncnc3ccc(OCCCCNCCS(C)(=O)=O)cc23)c1
3. O=C(NCC1CC1)c1ccc(-c2cccc(C(=O)NC3CC3)c2)cc1
4. Cc1ccc(C(=O)NC(C)C)cc1-c1ccc(C(=O)NCC2CC2)cc1
5. C/C(Nc1ccc(S(N)(=O)=O)cc1)=C1/C(=O)Nc2ccccc21
6. Clc1ccc(CNc2nccc(-c3cnn4ncccc34)n2)cc1
7. CCc1ccc(Oc2nccc(-c3c(-c4ccc(F)cc4)ncn3C3CCNCC3)n2)cc1

A:
1: 1.53; 2: 2.48; 3: 0.49; 4: -1.5; 5: 1.97; 6: 0.56; 7: 3.21

---

target: RAC-gamma serine/threonine-protein kinase (Homo sapiens) (UniProt Q9Y243); conditions: at 1 µM
Sequence (Q9Y243 whole entry): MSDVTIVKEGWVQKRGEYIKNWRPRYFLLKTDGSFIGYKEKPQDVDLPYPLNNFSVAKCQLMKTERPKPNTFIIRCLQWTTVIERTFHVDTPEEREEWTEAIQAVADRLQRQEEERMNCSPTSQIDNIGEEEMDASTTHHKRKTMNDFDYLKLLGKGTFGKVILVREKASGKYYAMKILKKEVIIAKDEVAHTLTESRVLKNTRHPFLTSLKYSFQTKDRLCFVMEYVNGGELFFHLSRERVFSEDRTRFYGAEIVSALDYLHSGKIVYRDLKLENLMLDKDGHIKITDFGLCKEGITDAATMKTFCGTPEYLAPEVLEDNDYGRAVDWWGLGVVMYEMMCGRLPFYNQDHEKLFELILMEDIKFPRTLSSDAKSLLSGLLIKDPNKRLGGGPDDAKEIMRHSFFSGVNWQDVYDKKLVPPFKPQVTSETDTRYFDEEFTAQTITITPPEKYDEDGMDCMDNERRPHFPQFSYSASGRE
Description: GSK_PKIS: AKT3 mean inhibition at 1 uM [Nanosyn]
measured-property: inhibition (%)
Numbers only, in %.

The examples below pair each entry with its known result.
# chemical-structure, inhibition (%)
rows = [
    ("CCc1cccc(CC)c1/C=C/c1cncc(C(=O)NC)c1", 1.32),
    ("O=C(Nc1n[nH]c2cc(-c3ccccc3)ccc12)C1CC1", 2.94),
    ("CS(=O)(=O)CCNCc1ccc(-c2ccc3ncnc(Nc4ccc(OCc5ccccc5)c(Br)c4)c3c2)o1", -0.54),
]

We next turn to a different compound, shown below.
Q: Write down the reported inhibition of CNC(=O)c1cncc(/C=C/c2c(C)cccc2C)c1 , test system: RAC-gamma serine/threonine-protein kinase (Homo sapiens) (UniProt Q9Y243).
A: -2.42

---

target: Ribosomal protein S6 kinase alpha-4 (Homo sapiens) (UniProt O75676); details: at 0.1 µM;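 further: values are mean inhibition of MSK2, from GSK PKIS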
Sequence (O75676 whole entry, looked up): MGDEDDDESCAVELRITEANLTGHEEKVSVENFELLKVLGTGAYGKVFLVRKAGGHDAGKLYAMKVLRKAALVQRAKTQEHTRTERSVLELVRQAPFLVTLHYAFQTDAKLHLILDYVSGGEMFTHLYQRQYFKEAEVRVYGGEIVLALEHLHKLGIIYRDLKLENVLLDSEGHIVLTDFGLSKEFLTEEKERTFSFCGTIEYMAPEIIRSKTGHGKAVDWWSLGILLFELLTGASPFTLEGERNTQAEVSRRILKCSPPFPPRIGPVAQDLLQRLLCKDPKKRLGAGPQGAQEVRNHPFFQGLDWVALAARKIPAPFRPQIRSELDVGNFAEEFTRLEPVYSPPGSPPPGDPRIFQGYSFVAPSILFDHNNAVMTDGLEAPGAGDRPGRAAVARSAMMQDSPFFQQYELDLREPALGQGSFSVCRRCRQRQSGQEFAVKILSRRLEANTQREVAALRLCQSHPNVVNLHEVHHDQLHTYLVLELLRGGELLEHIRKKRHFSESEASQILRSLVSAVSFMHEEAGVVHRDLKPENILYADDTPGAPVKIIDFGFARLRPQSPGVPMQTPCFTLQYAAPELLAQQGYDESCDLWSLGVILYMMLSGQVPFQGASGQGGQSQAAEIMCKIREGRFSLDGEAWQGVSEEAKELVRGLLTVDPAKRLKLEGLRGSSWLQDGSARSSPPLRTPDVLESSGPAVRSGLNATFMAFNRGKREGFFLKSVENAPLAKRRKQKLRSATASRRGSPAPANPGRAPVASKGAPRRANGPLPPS
Hi there, I'd appreciate the recorded inhibition for every entry that follows.
One number for each entry, in %.

# molecule, inhibition [%]
records = [
    ("COc1ccc2ncn(-c3cc(O[C@H](C)c4ccccc4Cl)c(C(N)=O)s3)c2c1", 3.9),
    ("Fc1ccc(-c2ncn(CCCN3CCOCC3)c2-c2ccncc2)cc1", 0.3),
    ("NS(=O)(=O)c1ccc(Nc2cc(-c3ccc(O)c(F)c3)n[nH]2)cc1", -0.21),
    ("COc1ccc(C2=C(N3CCc4ccccc43)C(=O)NC2=O)cc1", 2.26),
    ("CNC(=O)c1cncc(/C=C/c2c(C)cccc2C)c1", 1.35),
]

Here are 4 molecules. What values of inhibition were reported for them?
1. CCS(=O)(=O)c1ccc(OC)c(Nc2ncc(-c3cccc(-c4ccccc4F)c3)o2)c1
2. O=C(Nc1n[nH]c2nc(-c3ccco3)ccc12)C1CC1
3. Fc1ccc(-c2ncn(C3CCNCC3)c2-c2ccnc(Oc3ccc(F)c(F)c3)n2)cc1
4. Fc1ccc(-c2ncn(C3CCNCC3)c2-c2ccnc(Oc3ccc4c(c3)OCO4)n2)cc1

A:
1: 0.74; 2: 1.68; 3: 3.37; 4: 3.63

---

Hi there, I'd appreciate the recorded inhibition for every entry that follows.
target: Serine/threonine-protein kinase SIK2 (Homo sapiens) (UniProt Q9H0K1); conditions: at 1 µM;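 further: mean inhibition of SNF1LK2 (QIK) kinase activity, from the GSK PKIS screening panel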
Sequence (Q9H0K1 whole entry, looked up): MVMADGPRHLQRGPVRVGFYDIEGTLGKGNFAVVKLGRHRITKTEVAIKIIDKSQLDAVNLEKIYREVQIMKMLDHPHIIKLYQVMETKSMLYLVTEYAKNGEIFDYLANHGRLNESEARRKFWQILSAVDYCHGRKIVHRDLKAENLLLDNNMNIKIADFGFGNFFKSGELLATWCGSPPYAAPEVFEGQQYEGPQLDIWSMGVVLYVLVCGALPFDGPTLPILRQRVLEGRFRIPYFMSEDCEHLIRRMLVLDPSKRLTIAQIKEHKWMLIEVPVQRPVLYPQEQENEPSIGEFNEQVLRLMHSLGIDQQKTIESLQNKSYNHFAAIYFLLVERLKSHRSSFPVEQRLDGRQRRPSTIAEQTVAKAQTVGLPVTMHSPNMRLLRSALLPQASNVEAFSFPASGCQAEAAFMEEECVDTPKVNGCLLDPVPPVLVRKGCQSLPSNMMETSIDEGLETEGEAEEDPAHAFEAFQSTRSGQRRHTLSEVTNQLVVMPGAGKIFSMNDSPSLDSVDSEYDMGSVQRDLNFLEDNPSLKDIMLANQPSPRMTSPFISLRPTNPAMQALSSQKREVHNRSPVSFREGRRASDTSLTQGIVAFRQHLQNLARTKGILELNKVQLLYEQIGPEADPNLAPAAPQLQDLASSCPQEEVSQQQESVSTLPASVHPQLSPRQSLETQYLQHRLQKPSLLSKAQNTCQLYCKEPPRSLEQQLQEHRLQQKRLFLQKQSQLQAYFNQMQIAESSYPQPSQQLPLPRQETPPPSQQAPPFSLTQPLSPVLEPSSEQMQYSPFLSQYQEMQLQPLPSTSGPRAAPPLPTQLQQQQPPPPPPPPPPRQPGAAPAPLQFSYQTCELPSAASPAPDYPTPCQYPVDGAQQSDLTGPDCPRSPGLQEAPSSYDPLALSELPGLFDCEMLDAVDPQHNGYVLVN
One number for each entry, in %.

# compound, endpoint-value
measured = [
    ("CCN(CC)Cc1ccc(Nc2nccc(-c3cnn4ncccc34)n2)cc1", 47.2),
    ("C/C(Nc1ccc(S(N)(=O)=O)cc1)=C1/C(=O)Nc2ccccc21", -0.55),
    ("C#Cc1cccc(Nc2ncnc3ccc(OCCCCNCCS(C)(=O)=O)cc23)c1", 27.5),
    ("O=C(Nc1ccc(Oc2ccc3[nH]c(NC(=O)c4ccccc4)nc3c2)cc1)Nc1cc(C(F)(F)F)ccc1F", 6.45),
    ("CN(C)c1ccc2c(c1)/C(=C/Nc1ccc(S(N)(=O)=O)cc1)C(=O)N2", 18.2),
    ("CCc1nccc2c1nc(-c1nonc1N)n2CC", 6.79),
]

Here are 2 compounds. What values of inhibition were reported for them?
1. O=C(NCC1CC1)c1ccc(-c2cccc(C(=O)NC3CC3)c2)cc1
2. COc1ccc2cc(-c3c(-c4ccncc4)nc(-c4ccc([S+](C)[O-])cc4C)n3C)ccc2c1 (configuration not stated)

A:
-0.16
-0.83

Here are 4 compounds. What values of inhibition were reported for them?
1. CCS(=O)(=O)c1ccc(OC)c(Nc2ncc(-c3cccc(-c4ccccc4F)c3)o2)c1
2. COc1ccc2ncn(-c3cc(O[C@H](C)c4ccccc4Cl)c(C(N)=O)s3)c2c1
3. COc1ccc(-c2ccc3c(NC(=O)C4CC4)n[nH]c3n2)cc1
4. C[C@@H](Oc1cc(-n2cnc3ccc(OCC4CCN(C)CC4)cc32)sc1C(N)=O)c1ccccc1Cl

A:
[6.03, 0.17, 6.15, 22]

Here are 4 compounds. What values of inhibition were reported for them?
1. Clc1ccc(CNc2nccc(-c3cnn4ncccc34)n2)cc1
2. CCc1ccc(Oc2nccc(-c3c(-c4ccc(F)cc4)ncn3C3CCNCC3)n2)cc1
3. CCC(=O)Nc1ccc(C)c(-c2ccc(C(=O)NCC3CC3)cc2)c1
4. NS(=O)(=O)c1ccc(N/N=C2\C(=O)Nc3ccc(C(=O)NCCCn4ccnc4)cc32)cc1

A:
1. 0.45
2. 19.4
3. 6.63
4. 12.7

Q: Could you share which inhibition value was measured for CS(=O)(=O)CCNCc1ccc(-c2ccc3ncnc(Nc4ccc(OCc5ccccc5)c(Br)c4)c3c2)o1 ?
A: 4.18

---

biological target: Macrophage colony-stimulating factor 1 receptor (Homo sapiens) (UniProt P07333); conditions: at 0.1 µM;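 further: value reported is the mean inhibition of FMS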
Sequence (P07333 whole entry): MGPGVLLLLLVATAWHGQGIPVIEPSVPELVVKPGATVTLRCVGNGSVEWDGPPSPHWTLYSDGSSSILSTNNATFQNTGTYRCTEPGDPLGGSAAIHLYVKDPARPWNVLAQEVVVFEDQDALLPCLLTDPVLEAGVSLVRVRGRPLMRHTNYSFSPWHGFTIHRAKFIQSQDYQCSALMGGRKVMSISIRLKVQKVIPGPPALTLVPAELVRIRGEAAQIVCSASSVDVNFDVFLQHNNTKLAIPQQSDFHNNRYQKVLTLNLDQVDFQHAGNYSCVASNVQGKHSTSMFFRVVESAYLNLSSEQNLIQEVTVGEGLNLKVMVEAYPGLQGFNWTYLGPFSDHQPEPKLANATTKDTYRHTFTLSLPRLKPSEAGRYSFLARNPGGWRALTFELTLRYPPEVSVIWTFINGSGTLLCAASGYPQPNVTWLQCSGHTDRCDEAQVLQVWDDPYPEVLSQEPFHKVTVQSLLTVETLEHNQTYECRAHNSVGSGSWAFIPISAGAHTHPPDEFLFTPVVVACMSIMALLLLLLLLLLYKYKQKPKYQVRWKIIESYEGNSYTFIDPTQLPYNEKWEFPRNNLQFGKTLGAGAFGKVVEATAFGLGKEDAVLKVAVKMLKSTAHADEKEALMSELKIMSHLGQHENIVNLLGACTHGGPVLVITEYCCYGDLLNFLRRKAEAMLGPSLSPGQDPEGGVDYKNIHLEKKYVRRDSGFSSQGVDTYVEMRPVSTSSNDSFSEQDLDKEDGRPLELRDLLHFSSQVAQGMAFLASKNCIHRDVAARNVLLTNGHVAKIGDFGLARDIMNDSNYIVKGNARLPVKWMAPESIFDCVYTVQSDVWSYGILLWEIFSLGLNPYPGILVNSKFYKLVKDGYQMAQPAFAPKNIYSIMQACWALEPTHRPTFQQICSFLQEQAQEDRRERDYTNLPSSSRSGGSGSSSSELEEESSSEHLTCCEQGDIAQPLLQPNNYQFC
measured-property: inhibition (%)
Give bare numbers, in %.

# chemical-structure, subject-of-test, value-unit, inhibition
data = [
    ("C#Cc1cccc(Nc2ncnc3ccc(OCCCCNCCS(C)(=O)=O)cc23)c1", "Macrophage colony-stimulating factor 1 receptor (Homo sapiens) (UniProt P07333)", "%", 4.11),
    ("NC(=O)c1ccc(Oc2nccc(-c3c(-c4ccc(F)cc4)ncn3C3CCNCC3)n2)cc1", "Macrophage colony-stimulating factor 1 receptor (Homo sapiens) (UniProt P07333)", "%", 5.61),
]

We next turn to a different molecule, shown below.
Q: Could you share which inhibition value was measured for NS(=O)(=O)c1ccc(Nc2cc(-c3ccc(O)c(F)c3)n[nH]2)cc1 ?
A: 0.43

---

target: Vascular endothelial growth factor receptor 3 (Homo sapiens); settings: at 1 µM;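 further: mean FLT4 inhibition, averaged across replicates, from the GSK PKIS kinase inhibitor screen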
measured-property: inhibition (%)
Numbers only, in %.

The examples below pair each entry with its known result.
# compound, inhibition, %
data = [
    ("Clc1ccc(CNc2nccc(-c3cnn4ncccc34)n2)cc1", 1.12),
    ("Fc1ccc(-c2ncn(C3CCNCC3)c2-c2ccnc(Oc3ccc(Oc4ccccc4)cc3)n2)cc1", 1.1),
]

Here are 5 compounds. What values of inhibition were reported for them?
1. COc1ccc2cc(-c3c(-c4ccncc4)nc(-c4ccc([S+](C)[O-])cc4C)n3C)ccc2c1 (stereo not given)
2. NS(=O)(=O)c1ccc(N/N=C2\C(=O)Nc3ccc(C(=O)NCCCn4ccnc4)cc32)cc1
3. COc1cc(Nc2ncc(-c3ccccc3)o2)cc(OC)c1OC
4. COc1cc2ncn(-c3cc(OCCc4ccccc4)c(C(N)=O)s3)c2cc1OC
5. COc1ccc2cc(-c3c(-c4ccncc4)nc(-c4ccc(S(C)(=O)=O)cc4C)n3C)ccc2c1

A:
1: 9.41; 2: 26.7; 3: 36.7; 4: 21; 5: 10.1
